# ASSAY: In vitro dissolution (drug release) from 400 mg matrix tablets, USP apparatus II, SGF or SIF
# Type: physicochemical
# Design: unit not given here
# STUDY_CONDITIONS: 10 wt. % drug, 400 mg PAA/PEO (1:1.5) tablet, modified SIF
Where a name gives a salt, the structure may show the parent alone.
For each of the molecules below, state its T50 (time during which 50% of drug has been released from matrix).

The cases that follow already have their T50 (time during which 50% of drug has been released from matrix) on record.
* Cc1ncc(CO)c(CO)c1O.Cl [Pyridoxine HCl] | 4
* CN(C)CCOC(C)(c1ccccc1)c1ccccn1 (centres unmarked) [Doxylamine Succinate] | 23
* CN[C@@H](C)[C@@H](O)c1ccccc1 [Pseudoephedrine HCl] | 4
* CN(C)CCCN1c2ccccc2CCc2ccccc21 [Imipramine HCl] | 58

Please give T50 (time during which 50% of drug has been released from matrix), item by item, for the list that follows.
1. CNC(=C[N+](=O)[O-])NCCSCc1ccc(CN(C)C)o1 [Ranitidine HCl]
2. CN(C)CCOC(c1ccccc1)c1ccccc1 [Diphenhydramine HCl]
3. CCCCOc1cc(C(=O)OCCN(CC)CC)ccc1N [Benoxinate HCl]

[11, 15, 22]

Please give T50 (time during which 50% of drug has been released from matrix), item by item, for the list that follows.
1. COc1ccc([C@@H]2Sc3ccccc3N(CCN(C)C)C(=O)[C@@H]2OC(C)=O)cc1 [Diltiazem HCl]
2. COc1cccc(C2(O)CCCCC2CN(C)C)c1 (centres unmarked) [Tramadol HCl]
3. CC1OC2(CS1)CN1CCC2CC1 (centres unmarked) [Cevimeline HCl]
4. CN(C)CCCN1c2ccccc2Sc2ccc(Cl)cc21 [Chlorpromazine HCl]

[18, 31, 4.5, 56]
